- Measurement target: cyclophilin D (Cyp D) (Homo sapiens)
- Sequence (P30405 30-207): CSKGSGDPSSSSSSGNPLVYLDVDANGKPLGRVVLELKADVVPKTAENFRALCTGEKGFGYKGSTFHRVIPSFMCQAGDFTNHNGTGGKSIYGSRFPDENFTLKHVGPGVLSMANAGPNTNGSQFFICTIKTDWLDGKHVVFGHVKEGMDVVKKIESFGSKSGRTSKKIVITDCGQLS
- Experiment notes: Protease-free PPIase assay, cyclophilin D
- Format: biochemical
pKi: −log10 of the molar value. Numbered stars: 1 amine (or outer) side, 2 acyl side, 3 side chain; on linkers, the order of the positions; unused ones are H or OH. Square brackets hold non-standard residues; d marks the D form. Peptide text beside a SMILES is read from it. X5 = C[C@H](CCN1CCS(=O)(=O)CC1)[C@@H](O)[C@H](C(=O)[*:2])N(C)[*:1]; X9 = C[C@H](CC(=O)NCc1ccccc1)[C@@H](O)[C@H](C(=O)[*:2])N(C)[*:1]; d(aThr) = C[C@@H](O)[C@@H](N)C(=O)O; NMeL = CN[C@@H](CC(C)C)C(=O)O; dNMeL = CN[C@H](CC(C)C)C(=O)O; dNMeV = CN[C@@H](C(=O)O)C(C)C; Hiv = CC(C)[C@H](O)C(=O)O; Sar = CNCC(=O)O

Molecule	pKi
CC(C)C[C@@H]1C(=O)N[C@H](CC(C)C)C(=O)N(C)[C@H](C(C)C)C(=O)N(C)[C@H]([C@H](O)[C@H](C)CC(=O)NCc2ccccc2)C(=O)N[C@H]([C@@H](C)O)C(=O)N(C)CC(=O)N(C)[C@@H](CC(C)C)C(=O)N[C@H](CC(C)C)C(=O)N(C)[C@H](CC(C)C)C(=O)N[C@H](C)C(=O)O[C@@H](C(C)C)C(=O)N1C [Example 36] (cyclo([Hiv][dNMeL][dL][dNMeV][X9][d(aThr)][Sar][NMeL][dL][dNMeL][dA]))	7.60 to 9.00
CC(C)CC1NC(=O)[C@H](CC(C)C)N(C)C(=O)CN(C)C(=O)C([C@@H](C)O)NC(=O)C([C@H](O)[C@H](C)CCN2CCOCC2)N(C)C(=O)C(C(C)C)N(C)C(=O)C(CC(C)C)NC(=O)C(CC(C)C)N(C)C(=O)C(C(C)C)OC(=O)C(C)NC(=O)C(CC(C)C)N(C)C1=O (stereo in doubt)	8.19
CC(C)C[C@@H]1C(=O)N[C@H](CC(C)C)C(=O)N(C)[C@H](C(C)C)C(=O)N(C)[C@H]([C@H](O)[C@H](C)CCN2CCS(=O)(=O)CC2)C(=O)N[C@H]([C@@H](C)O)C(=O)N(C)CC(=O)N(C)[C@@H](CC(C)C)C(=O)N[C@H](CC(C)C)C(=O)N(C)[C@H](CC(C)C)C(=O)N[C@H](C)C(=O)O[C@@H](C(C)C)C(=O)N1C [Example 23] (cyclo([Hiv][dNMeL][dL][dNMeV][X5][d(aThr)][Sar][NMeL][dL][dNMeL][dA]))	7.60 to 9.00
